All figures here come from patent US20140315886A1.

measured on: purified STEP46 enzyme (Homo sapiens, UniProt P54829)
pIC50: −log10 of the molar value.
observation type: pIC50

> print(dat)
                              smiles.string  recorded.measurement
1  CNc1nc(-c2cccnc2)nc2ccc(-c3c(F)ccc(F)c3F)cc12          5.00 to 6.00
2  CNc1nc(-c2cccnc2)nc2cc(-c3cc(F)cc(F)c3)c(F)cc12                > 6.00
3  CCOc1ccc2nc(-c3cccnc3)nc(Nc3cncc(C)c3)c2c1          5.00 to 6.00
4  CNc1nc(-c2cccnc2)nc2c(C)c(-c3cc(F)c(F)c(F)c3)ccc12                > 6.00
5  c1ccc(CNc2nc(-c3cccnc3)nc3cc(-c4cc5ccccc5o4)ccc23)nc1          5.00 to 6.00
6  CNc1nc(-c2cccnc2)nc2c(Cl)cc(-c3cccc(F)c3F)cc12          5.00 to 6.00
7  CC(=O)Nc1cccc(-c2ccc3c(N4CCc5cc(Cl)ccc54)nc(-c4cccnc4)nc3c2)c1          5.00 to 6.00
8  CNc1nc(-c2cccnc2)nc2cc(-c3ccc(F)cc3C)ccc12          5.00 to 6.00

Take each entry in turn and give its pIC50.
1. c1ccc(CCNc2nc(-c3cccnc3)nc3ccc(-c4cc5ccccc5o4)cc23)nc1
2. CNc1nc(-c2cccnc2)nc2c(F)c(-c3cc(F)cc(F)c3F)ccc12
3. CNc1nc(-c2cncc(OC)c2)nc2cc(-c3cc(F)ccc3F)ccc12
4. CNc1nc(-c2cccnc2)nc2c(F)cc(-c3cc(F)ccc3F)cc12
5. CNc1nc(-c2cnccn2)nc2cc(-c3cc(F)cc(F)c3)ccc12
6. CNc1nc(-c2cccnc2)nc2c(OC)cc(-c3ccc(C#N)cc3)cc12

output:
["5.00 to 6.00", "> 6.00", "5.00 to 6.00", "5.00 to 6.00", "5.00 to 6.00", "< 5.00"]

input: Give purified STEP46 enzyme (Homo sapiens, UniProt P54829) pIC50 for "CN(C)CCCN(C)c1nc(-c2cccnc2)nc2cc(-c3cc(F)ccc3F)ccc12"
output: < 5.00

----------
measured on: purified STEP46 enzyme (Homo sapiens, UniProt P54829)
Sequence (P54829 197-565 limits assumed): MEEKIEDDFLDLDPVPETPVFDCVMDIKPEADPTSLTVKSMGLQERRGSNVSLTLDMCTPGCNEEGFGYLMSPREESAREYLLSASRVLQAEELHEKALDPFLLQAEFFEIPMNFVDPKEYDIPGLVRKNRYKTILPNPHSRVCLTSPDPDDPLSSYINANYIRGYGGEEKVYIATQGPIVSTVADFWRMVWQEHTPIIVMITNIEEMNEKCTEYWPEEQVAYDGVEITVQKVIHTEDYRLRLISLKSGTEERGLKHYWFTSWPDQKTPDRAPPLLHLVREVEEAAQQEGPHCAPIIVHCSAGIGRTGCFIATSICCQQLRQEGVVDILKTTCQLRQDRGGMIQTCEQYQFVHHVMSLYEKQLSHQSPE
pIC50: −log10 of the molar value.
observation type: pIC50

> print(dat)
                              smiles.string                               measured.on  recorded.measurement
1  CNc1nc(-c2cccnc2)nc2cc(-c3cc(F)ccc3F)c(F)cc12  purified STEP46 enzyme (Homo sapiens, UniProt P54829)          5.00 to 6.00
2  Cn1ccc2cc(-c3ccc4nc(-c5cccnc5)nc(NCCc5ccccn5)c4c3)ccc21  purified STEP46 enzyme (Homo sapiens, UniProt P54829)                > 6.00
3  CNc1nc(-c2cccnc2)nc2ccc(-c3cccc(C(=O)Nc4nncs4)c3)cc12  purified STEP46 enzyme (Homo sapiens, UniProt P54829)                > 6.00

Take each entry in turn and give its pIC50.
1. COc1ccc2nc(-c3cccnc3)nc(-n3ccc4cccnc43)c2c1
2. CNc1nc(-c2cccnc2)nc2c(C)c(-c3cc(F)c(F)cc3F)ccc12
3. Fc1ccccc1-c1ccc2c(N3CCc4cc(Cl)ccc43)nc(-c3cccnc3)nc2c1
4. CNc1nc(-c2cccnc2)nc2c(F)c(-c3ccc(OC)c(F)c3)ccc12

output:
1. 5.00 to 6.00
2. < 5.00
3. 5.00 to 6.00
4. > 6.00

----------
measured on: purified STEP46 enzyme (Homo sapiens)
method description: STEP46 biochemical assay (DiFMUP fluorescence phosphatase assay)
test context: DiFMUP 10 μM, read-out: STEP IC50
pIC50: −log10 of the molar value.
Answer each item with its documented pIC50.

Past entries and their recorded results:
> print(dat)
                                   compound  recorded.measurement
1  CNc1nc(-c2cccnc2)nc2c(-c3cccc(C#N)c3)cccc12 [Compound 272]                > 6.00
2  Cc1c(-c2cncnc2)ccc2c(N3CCc4cc(Cl)ccc43)nc(-c3cccnc3)nc12 [Compound 115]                > 6.00
3  Fc1ccc(-c2ccc3nc(-c4cccnc4)nc(-c4nccs4)c3c2)c(F)c1 [Compound 416]                > 6.00
4  CNc1nc(-c2cccnc2)nc2c(-c3cc(F)cc(F)c3)ccc(OC)c12 [Compound 491]          5.00 to 6.00
5  CC(Nc1nc(-c2cccnc2)nc2ccc(-c3ccc(F)cc3)cc12)c1ccccc1 (centres unmarked) [Compound 605]          5.00 to 6.00
6  Fc1ccc(CNc2nc(-c3cccnc3)nc3ccc(-c4cccc(F)c4F)cc23)cc1F [Compound 361]                < 5.00
7  COc1ccc2nc(-c3cccnc3)nc(Nc3cncc(F)c3)c2c1 [Compound 25]          5.00 to 6.00
8  CNc1nc(-c2cncnc2)nc2ccc(-c3cccc(F)c3)cc12 [Compound 210]          5.00 to 6.00

Take each entry in turn and give its pIC50.
1. CNc1nc(-c2cccnc2)nc2ccc(-c3ccc4c(c3)C(=O)NCCO4)cc12 [Compound 479]
2. CNc1nc(-c2cccnc2)nc2c(-c3ccc(F)c(F)c3)cccc12 [Compound 278]
3. CNc1nc(-c2cnccn2)nc2cc(-c3ccc(F)cc3F)ccc12 [Compound 395]
4. Fc1ccc(-c2ccc3nc(-c4cccnc4)nc(Nc4ccc(F)cn4)c3c2)cc1 [Compound 436]
5. CNc1nc(-c2cccnc2)nc2cc(F)c(-c3cccc(F)c3F)cc12 [Compound 594]
6. Fc1ccc(-c2ccc3c(N4CCc5cc(Cl)ccc54)nc(-c4cccnc4)nc3c2)c(F)c1 [Compound 94]

output:
5.00 to 6.00
5.00 to 6.00
5.00 to 6.00
5.00 to 6.00
5.00 to 6.00
5.00 to 6.00

Take each entry in turn and give its pIC50.
1. Nc1nc(-c2cncnc2)nc2ccc(-c3cccc(F)c3)cc12 [Compound 213]
2. CNc1nc(-c2cccnc2)nc2cc(-c3ccoc3C)ccc12 [Compound 275]

output:
1: < 5.00; 2: < 5.00

Take each entry in turn and give its pIC50.
1. CNc1nc(-c2cccnc2)nc2ccc(-c3cc4[nH]c(=O)oc4cc3F)cc12 [Compound 477]
2. CNc1nc(-c2cccnc2)nc2cc(F)c(-c3cc(F)cc(F)c3)cc12 [Compound 588]
3. COc1ccc2nc(-c3cccnc3)nc(Nc3cc(Cl)ccn3)c2c1 [Compound 45]
4. Clc1ccc2c(c1)CCN2c1nc(-c2cccnc2)nc2cc(-c3cccnc3)ccc12 [Compound 99]
5. CNc1nc(-c2cccnc2)nc2c(F)c(-c3ccc(OC)cc3)ccc12 [Compound 518]
6. CNc1nc(-c2cccnc2)nc2cc(-c3ccc(F)cc3OC)ccc12 [Compound 322]

output:
["> 6.00", "5.00 to 6.00", "< 5.00", "> 6.00", "5.00 to 6.00", "5.00 to 6.00"]

Take each entry in turn and give its pIC50.
1. Fc1cccc(-c2ccc3c(N4CCc5cc(Cl)ccc54)nc(-c4cccnc4)nc3c2)c1 [Compound 96]
2. CNc1nc(-c2cccnc2)nc2c(OC)cc(-c3cccc(F)c3F)cc12 [Compound 194]
3. Fc1ccc2c(c1)N(c1nc(-c3cccnc3)nc3ccc(Br)cc13)CC2 [Compound 22]
4. NC(=O)C1CN(c2nc(-c3cccnc3)nc3ccc(-c4ccc(F)cc4F)cc23)C1 [Compound 419]

output:
["5.00 to 6.00", "5.00 to 6.00", "5.00 to 6.00", "5.00 to 6.00"]

----------
measured on: purified STEP46 enzyme (Homo sapiens)
pIC50: −log10 of the molar value.
Answer each item with its documented pIC50.

> print(dat)
                              smiles.string  observation.type  recorded.measurement
1  CNc1nc(-c2cccnc2)nc2cc(C)c(-c3cccc(F)c3)cc12             pIC50          5.00 to 6.00
2  Cc1c(-c2cccnc2)ccc2c(N3CCc4cc(Cl)ccc43)nc(-c3cccnc3)nc12             pIC50                > 6.00
3  CNc1nc(-c2cccnc2)nc2ccc(-c3ccc4c(c3)SCC(=O)N4)cc12             pIC50          5.00 to 6.00
4  CCOc1ccc2nc(-c3cccnc3)nc(Nc3cncc(F)c3)c2c1             pIC50          5.00 to 6.00

input: Query (compound): "Fc1ccc(-c2ccc3nc(-c4cccnc4)nc(N4CCc5cc(F)ccc54)c3c2)cc1" ; field requested: pIC50
output: 5.00 to 6.00
